Assay: SK-BR-3 cell growth inhibitors, pilot screen, 24 h, human (AID 572);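 also: compound exposure lasted between 18 and 24 h rather than exactly 24 h; 100% = carrier-treated control wells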
Settings: SK-BR-3 viability, CellTiter-Glo luminescence, at 10 µM, active compounds read low
The source made the active and inactive calls.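 The calls were made as follows: active = viability at or below 10% of carrier control in both of two separate runs; inconclusive = viability at or below 10% in only one of the two runs; inactive = the rest.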
measurementKind: viability

{"compound": "CC(=O)c1cccc(S(=O)(=O)N2CCC(n3nnc4cc(F)ccc43)CC2)c1", "viability": "88% (inactive)"}
{"compound": "O=C(c1ccc2c(c1)[nH]c(=S)n1c3ccccc3nc21)N1CCN(c2ncccn2)CC1", "viability": "100% (inactive)"}
{"compound": "CC(C)(C)OC(=O)NCCc1nnc(SCC(=O)c2ccc(Cl)cc2)o1", "viability": "97.5% (inactive)"}
{"compound": "CCC(c1nnnn1C(C)(C)C)N1CCN(C2CCCC2)CC1 (stereo not drawn)", "viability": "98.5% (inactive)"}
{"compound": "c1ccc(SCc2nc3ccccc3[nH]2)nc1", "viability": "99.5% (inactive)"}

# viability (compound: COc1ccccc1NC(=O)C1=C(C)Nc2nc(CCCO)nn2C1c1cccnc1 (stereo not drawn) ) is 132% (inactive)

For record `CCOC(=O)CSc1nnc(-c2ccc(S(=O)(=O)N3CCOCC3)cc2)n1-c1ccccc1` the listed viability is 93% (inactive)

The value of viability measured for the compound Cc1cccn2c(=O)c3cc(C#N)c(=NC(=O)c4cccnc4)n(CC4CCCO4)c3nc12 (stereo not drawn) turned out to be 92.5% (inactive)

Reported viability for `c1ccc(-c2nnc(CN3CCC4(CC3)OCCO4)o2)cc1` was 110% (inactive)

// sample CC(=O)Nc1ccc(OCC(O)CN2CCN(c3cccc(Cl)c3)CC2)cc1 (stereo not drawn) , its viability was 76.5% (inactive)

Lab book: viability of `C[C@@H]1C[C@H]2[C@@H]3CCC4=CC(=O)C=C[C@]4(C)[C@@]3(F)[C@@H](O)C[C@]2(C)[C@H]1C(=O)CO` noted as 84% (inactive)

viability reading for CCOC(=O)C1CCCN(c2c(NCc3ccco3)c(=O)c2=O)C1 (stereo not drawn) : 94% (inactive)

Looking up `O=C(CCN1C(=O)COc2ccccc21)N1CCN(c2ccccn2)CC1` , I found its viability recorded as 130% (inactive)

Reported viability ( `CCN(C(=O)c1cc2cc3ccc(C)cc3nc2o1)c1ccc(OC)cc1` ) = 85.5% (inactive)
